biological target: UGT enzymes of human liver microsomes (Homo sapiens, UniProt P16662); construct: residual metabolism (percentage of control), zidovudine glucuronidation; other: liver lot 062101; residual metabolism (percentage of control), zidovudine glucuronidation; residual metabolism (percentage of control); test: Inhibition of zidovudine glucuronidation in human liver microsomes; type: biochemical; details: liver lot 062101; inhibitor 1000 μM
Sequence (P16662 whole entry): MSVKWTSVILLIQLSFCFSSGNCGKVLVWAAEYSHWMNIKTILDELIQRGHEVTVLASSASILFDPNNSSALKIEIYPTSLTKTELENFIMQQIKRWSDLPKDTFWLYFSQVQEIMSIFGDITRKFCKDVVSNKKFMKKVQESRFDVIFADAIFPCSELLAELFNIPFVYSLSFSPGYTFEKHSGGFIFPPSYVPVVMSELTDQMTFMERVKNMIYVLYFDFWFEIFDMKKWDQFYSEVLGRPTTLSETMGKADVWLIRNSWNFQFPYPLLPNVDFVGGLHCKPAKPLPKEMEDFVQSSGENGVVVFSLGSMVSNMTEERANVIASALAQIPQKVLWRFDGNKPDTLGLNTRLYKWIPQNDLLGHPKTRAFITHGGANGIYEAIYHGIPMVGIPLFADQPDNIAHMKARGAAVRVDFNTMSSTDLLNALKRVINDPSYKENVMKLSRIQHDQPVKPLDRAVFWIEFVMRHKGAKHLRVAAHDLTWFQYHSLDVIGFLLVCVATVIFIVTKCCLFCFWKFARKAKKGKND
Reported residual metabolism (percentage of control), zidovudine glucuronidation is given for each of the following compounds.
observation_type: residual metabolism (percentage of control), zidovudine glucuronidation

{"compound": "COc1cc(CNC(=O)CCCCCCC(C)C)ccc1O [Dihydrocapsaicin]", "assay_target": "UGT enzymes of human liver microsomes (Homo sapiens, UniProt P16662)", "endpoint_value": "42 (2) %"}
{"compound": "O=C1C[C@@H](c2ccc(O)cc2)Oc2cc(O)cc(O)c21", "assay_target": "UGT enzymes of human liver microsomes (Homo sapiens, UniProt P16662)", "endpoint_value": "15 (3) %"}
{"compound": "Cc1ccc(C(C)C)cc1O", "assay_target": "UGT enzymes of human liver microsomes (Homo sapiens, UniProt P16662)", "endpoint_value": "20 (1) %"}
{"compound": "C=CCc1ccc(O)c(OC)c1", "assay_target": "UGT enzymes of human liver microsomes (Homo sapiens, UniProt P16662)", "endpoint_value": "48 (4) %"}
{"compound": "CC1CCC(C(C)C)C(O)C1 (stereo not drawn)", "assay_target": "UGT enzymes of human liver microsomes (Homo sapiens, UniProt P16662)", "endpoint_value": "25 (2) %"}
{"compound": "CCCCCCCCOC(=O)c1cc(O)c(O)c(O)c1 [Octyl gallate]", "assay_target": "UGT enzymes of human liver microsomes (Homo sapiens, UniProt P16662)", "endpoint_value": "17 (1) %"}
